Biological target: human S1P1 receptor (Homo sapiens)
Construct: membranes used
Sequence (P21453 whole entry): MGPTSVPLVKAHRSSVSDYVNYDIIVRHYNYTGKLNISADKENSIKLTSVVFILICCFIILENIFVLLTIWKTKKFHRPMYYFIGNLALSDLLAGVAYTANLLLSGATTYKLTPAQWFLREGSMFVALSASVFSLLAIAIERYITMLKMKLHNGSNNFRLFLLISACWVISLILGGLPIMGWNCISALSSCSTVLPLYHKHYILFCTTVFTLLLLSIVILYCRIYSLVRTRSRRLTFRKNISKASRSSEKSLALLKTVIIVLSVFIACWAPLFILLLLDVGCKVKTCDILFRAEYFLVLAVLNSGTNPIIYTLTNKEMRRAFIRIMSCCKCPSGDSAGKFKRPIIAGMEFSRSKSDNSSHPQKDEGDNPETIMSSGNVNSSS
Experiment: GTP γ35S binding assay for S1P1 activity
Conditions: membranes of cells stably expressing the S1P1 receptor, test concentrations 0.08 to 5,000 nM, 30 min at 25° C.
Procedure: Compounds were synthesized and tested for S1P1 activity using the GTP γ^35S binding assay. These compounds may be assessed for their ability to activate or block activation of the human S1P1 receptor in cells stably expressing the S1P1 receptor. GTP γ^35S binding was measured in the medium containing (mM) HEPES 25, pH 7.4, MgCl2 10, NaCl 100, dithitothreitol 0.5, digitonin 0.003%, 0.2 nM GTP γ^35S, and 5 μg membrane protein in a volume of 150 μl. […]
readout: EC50 (nM)
Provide only the numeric value, understood in nM.

-- ask Name the value of EC50 reported for `Cc1ccc(/C=C(\CCCCSc2ccc(CNCCC(=O)O)cc2)c2cc(F)cc(F)c2)cc1C` when tested on human S1P1 receptor (Homo sapiens).
-- reply 639

-- ask Name the value of EC50 reported for `Cc1ccc(/C=C(\CCCOc2ccc(CNCCC(=O)O)cc2)c2cc(F)cc(F)c2)cc1C` when tested on human S1P1 receptor (Homo sapiens).
-- reply 51.9

-- ask Name the value of EC50 reported for Cc1ccc(/C=C(\CCC[S+]([O-])c2ccc(CNCCC(=O)O)cc2)c2cccc(Cl)c2)cc1C (centres unmarked) when tested on human S1P1 receptor (Homo sapiens).
-- reply 450

-- ask Name the value of EC50 reported for `Cc1ccc(/C=C(\CCCOc2ccc(CNCCCP(=O)(O)O)cc2)c2cccc(Cl)c2)cc1C` when tested on human S1P1 receptor (Homo sapiens).
-- reply 9.65

-- ask Name the value of EC50 reported for Cc1ccc(/C=C(\CCC[S+]([O-])c2ccc(CNCCC(=O)O)cc2)c2cc(F)cc(F)c2)cc1C (centres unmarked) when tested on human S1P1 receptor (Homo sapiens).
-- reply 111

-- ask Name the value of EC50 reported for `Cc1ccc(/C=C(\CCCOc2ccc(CNCCCP(=O)(O)O)cc2)c2cc(F)cc(F)c2)cc1C` when tested on human S1P1 receptor (Homo sapiens).
-- reply 7.84

-- ask Name the value of EC50 reported for `Cc1ccc(/C=C(\CCCSc2ccc(CNCCC(=O)O)cc2)c2cc(F)cc(F)c2)cc1C` when tested on human S1P1 receptor (Homo sapiens).
-- reply 10.2

-- ask Name the value of EC50 reported for `Cc1ccc(/C=C(\CCCOc2ccc(CNCCC(=O)O)cc2)c2cccc(Cl)c2)cc1C` when tested on human S1P1 receptor (Homo sapiens).
-- reply 73.2

Values were extracted from patent US20140228325A1.
